- Tested on: Bacillus cereus
- EXPERIMENT: Antibacterial activity against Bacillus cereus ATCC27348 assessed as inhibition of bacterial growth incubated for 18 hrs by microdilution method
- Format: functional
MEASURED METRIC: MIC (µg/mL)
One number for each entry, in µg/mL.

CCn1cc(C(=O)O)c(=O)c2cc(F)c(N3CCNCC3)cc21 | 2
C[C@@H](COCc1ccccc1)C[C@H](C)C[C@H](C)C#CC(O)C[C@@H](O)c1cc(O)cc(O)c1 (some centres undefined) | 64
Cc1onc(-c2ccccc2)c1C(=O)N[C@@H]1C(=O)N2[C@@H]1SC(C)(C)[C@@H]2C(=O)O | 32
CC(C)C[C@H]([C@H](O)CCNc1cccc(C(F)(F)F)c1)[C@@H](O)c1cc(O)cc(O)c1 | 8
CC(C)C[C@@H]([C@H](O)C[C@H](O)CCCCCCCCNCc1ccccc1)[C@@H](O)c1cc(O)cc(O)c1 | 1
CC(C)C[C@H]([C@H](O)C[C@H](O)C#CCCCCCCOCc1ccccc1)[C@@H](O)c1cc(O)cc(O)c1 | 64

Continue with the compound presented below.
IN: Give MIC for the following compound: CCC(=O)[C@H](C)C[C@H](C)C[C@H](C)CC[C@@H](O)C[C@@H](O)[C@@H](CC(C)C)[C@@H](O)c1cc(O)cc(O)c1
OUT: 256

----------
For each of the compounds below, state its pIC50.
- MEASUREMENT TARGET: L-2,3-diaminopropanoate--citrate ligase (Staphylococcus aureus (strain NCTC 8325 / PS 47))
- Sequence (Q2G1M9 whole entry): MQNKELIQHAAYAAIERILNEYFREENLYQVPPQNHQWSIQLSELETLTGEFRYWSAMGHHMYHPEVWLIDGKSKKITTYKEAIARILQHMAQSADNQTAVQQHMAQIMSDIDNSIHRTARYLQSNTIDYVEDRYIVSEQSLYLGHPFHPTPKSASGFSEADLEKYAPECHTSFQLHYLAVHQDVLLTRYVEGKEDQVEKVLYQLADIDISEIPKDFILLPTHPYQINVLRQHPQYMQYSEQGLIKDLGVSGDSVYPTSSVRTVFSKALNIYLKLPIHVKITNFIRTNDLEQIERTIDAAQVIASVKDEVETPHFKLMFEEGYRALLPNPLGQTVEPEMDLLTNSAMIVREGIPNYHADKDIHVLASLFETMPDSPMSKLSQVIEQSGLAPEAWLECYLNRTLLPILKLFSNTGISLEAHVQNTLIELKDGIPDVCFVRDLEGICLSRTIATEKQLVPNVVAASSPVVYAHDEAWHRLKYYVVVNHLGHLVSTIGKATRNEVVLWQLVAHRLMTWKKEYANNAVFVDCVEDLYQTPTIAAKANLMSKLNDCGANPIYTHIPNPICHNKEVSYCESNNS
- EXPERIMENT: Inhibition of Staphylococcus aureus SbnE incubated for 1 hr by malachite green staining based microplate reader analysis
Answers are plain numbers, as −log10 of the molar value.

# count of solved cases: 2
C[C@@H](COCc1ccccc1)C[C@H](C)C[C@H](C)C#CC(O)C[C@@H](O)c1cc(O)cc(O)c1 (stereo partly drawn) | 5.05
CC(C)C[C@@H]([C@H](O)C[C@H](O)C#C[C@@H](C)C[C@H](C)C[C@@H](C)COCc1ccccc1)[C@@H](O)c1cc(O)cc(O)c1 | 4.93

IN: Give pIC50 for the following compound: C=CC[C@@H](O)[C@@H](CC(C)C)[C@@H](O)c1cc(O)cc(O)c1
OUT: 5.09
